Source of measurements: patent US20250250357A1

What competition rate was measured for each of the following?
- system name: T1, human MSLN-FL-his protein (human, UniProt Q13421 296-580)
- T1 construct: made in HEK293E cells, purified on nickel column; also called hMSLN-FL-his; human MSLN full-length protein; not shown: His tag
- T1 sequence (Q13421 other isoform, or with tags, fused parts or gaps): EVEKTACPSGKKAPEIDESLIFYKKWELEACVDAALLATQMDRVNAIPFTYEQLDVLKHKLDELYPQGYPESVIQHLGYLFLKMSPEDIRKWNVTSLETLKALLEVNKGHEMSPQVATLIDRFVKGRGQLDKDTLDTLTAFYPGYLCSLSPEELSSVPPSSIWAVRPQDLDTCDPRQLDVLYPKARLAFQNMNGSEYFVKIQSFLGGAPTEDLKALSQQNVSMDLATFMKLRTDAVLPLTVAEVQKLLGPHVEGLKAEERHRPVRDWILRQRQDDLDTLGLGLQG
- assay: competitive ELISA; row F8-19.21; note: test concentration or dose not given here
Answers are plain numbers, in %.

Examples from the recorded data:
[[record]]
binder = "S009-F8-7.5 (antibody, human IgG1, kappa, V domains shown, human-murine chimeric antibody, human IgG1/kappa constant regions) VH: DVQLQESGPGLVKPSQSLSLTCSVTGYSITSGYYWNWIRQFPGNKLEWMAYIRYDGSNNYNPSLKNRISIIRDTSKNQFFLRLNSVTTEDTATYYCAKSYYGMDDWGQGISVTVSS VL: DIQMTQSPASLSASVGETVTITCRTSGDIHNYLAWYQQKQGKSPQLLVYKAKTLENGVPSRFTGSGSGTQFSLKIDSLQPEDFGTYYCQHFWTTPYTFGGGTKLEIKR"
reported_endpoint = "competition rate"
readout_unit = "%"
measured = 14.7

[[record]]
binder = "S009-F8-12.13 (antibody, human IgG1, kappa, V domains shown, human-murine chimeric antibody, human IgG1/kappa constant regions) VH: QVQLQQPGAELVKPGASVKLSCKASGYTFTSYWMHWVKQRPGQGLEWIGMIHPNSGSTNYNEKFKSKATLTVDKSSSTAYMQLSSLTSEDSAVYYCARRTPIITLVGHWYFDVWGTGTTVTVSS VL: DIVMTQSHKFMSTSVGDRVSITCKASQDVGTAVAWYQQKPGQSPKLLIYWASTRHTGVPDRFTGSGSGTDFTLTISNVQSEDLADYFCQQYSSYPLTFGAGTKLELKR"
reported_endpoint = "competition rate"
readout_unit = "%"
measured = 75.9


Now consider a different binder.
Q) Would you mind telling me what competition rate value was observed for S009-F8-19.21 (antibody, human IgG1, kappa, V domains shown, human-murine chimeric antibody, human IgG1/kappa constant regions) VH: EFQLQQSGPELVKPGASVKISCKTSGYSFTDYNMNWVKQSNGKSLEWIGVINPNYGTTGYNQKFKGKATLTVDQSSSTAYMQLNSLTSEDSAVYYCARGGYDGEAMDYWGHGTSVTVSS VL: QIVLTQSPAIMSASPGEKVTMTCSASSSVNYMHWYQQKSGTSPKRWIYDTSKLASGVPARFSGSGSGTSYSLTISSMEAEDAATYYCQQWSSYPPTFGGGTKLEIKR ?
A) 95.4
